Origin of values: ChEMBL document CHEMBL1128259

- measured.target: Neurotensin receptor type 1 (Rattus norvegicus) (UniProt P20789)
- Sequence (P20789 whole entry): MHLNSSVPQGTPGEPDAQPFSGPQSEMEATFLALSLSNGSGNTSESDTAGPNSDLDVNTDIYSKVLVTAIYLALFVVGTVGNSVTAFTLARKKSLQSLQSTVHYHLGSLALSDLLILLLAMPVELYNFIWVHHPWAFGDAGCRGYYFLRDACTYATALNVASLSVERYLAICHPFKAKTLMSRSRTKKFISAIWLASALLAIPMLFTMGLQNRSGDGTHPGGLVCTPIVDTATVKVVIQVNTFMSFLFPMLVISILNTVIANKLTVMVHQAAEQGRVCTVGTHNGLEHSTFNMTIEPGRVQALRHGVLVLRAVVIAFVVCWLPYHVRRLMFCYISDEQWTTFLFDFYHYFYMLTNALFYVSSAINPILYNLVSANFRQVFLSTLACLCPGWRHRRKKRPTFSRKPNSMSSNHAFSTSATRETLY
- assay.name: Relative potency at neurotensin receptor compared to neurotensin (NT8-13)
Peptide text beside a SMILES is read from it. * marks the point of attachment. X2 = CC[C@@H](C)[C@H](CN[C@@H](Cc1ccccc1)C(=O)O)N*
quantity.measured: Relative potency

Check out these entries, answers already filled in.
CC[C@H](C)[C@H](NC(C#N)[C@@H](Cc1ccc(O)cc1)NC(=O)[C@@H]1CCCN1C(=O)[C@H](CCCN=C(N)N)NC(=O)[C@@H](N)CCCN=C(N)N)C(=O)N[C@@H](CC(C)C)C(=O)O (some centres undefined) = 5.5
CC[C@H](C)[C@H](NC(C#N)[C@H](Cc1ccc(O)cc1)NC(=O)C1CCCN1C(=O)[C@H](CCCN=C(N)N)NC(=O)[C@@H](N)CCCN=C(N)N)C(=O)N[C@@H](CC(C)C)C(=O)O (some centres undefined) = 0.1
CC[C@@H](C)[C@H](CN[C@@H](Cc1ccccc1)C(=O)O)NC(=O)[C@H](Cc1ccc(O)cc1)NC(=O)[C@@H]1CCCN1C(=O)[C@H](CCCN=C(N)N)NC(=O)[C@@H](N)CCCN=C(N)N (H-RRPY-X2) = 0.1
CC[C@H](C)[C@H](NC(=O)[C@H](Cc1ccc(O)cc1)NC(=O)[C@@H]1CCCN1C(=O)[C@H](CCCN=C(N)N)NC(=O)[C@@H](N)CCCN=C(N)N)C(=O)C[C@H](Cc1ccccc1)C(=O)O (stereo in doubt; 13b) = 0.8

1 = CC[C@@H](C)[C@@H](NC(=O)[C@H](Cc1ccc(O)cc1)NC(=O)[C@@H]1CCCN1C(=O)[C@H](CCCN=C(N)N)NC(=O)[C@@H](N)CCCN=C(N)N)C(=O)N[C@@H](Cc1ccccc1)C(=O)O
2 = CC[C@H](C)[C@H](NC(=O)[C@H](Cc1ccc(O)cc1)NC(=O)[C@@H]1CCCN1C(=O)[C@H](CCCN=C(N)N)NC(=O)[C@@H](N)CCCN=C(N)N)C(=O)C[C@H](Cc1ccccc1)C(=O)O (stereo in doubt; 13c)
3 = CC[C@H](C)[C@H](NC(=O)[C@H](Cc1ccc(O)cc1)NC(=O)[C@@H]1CCCN1C(=O)[C@H](CCCN=C(N)N)NC(=O)[C@@H](N)CCCN=C(N)N)C(=O)C[C@H](Cc1ccccc1)C(=O)O (stereo in doubt; 13a)
4 = CC(C)C[C@H](NC(=O)[C@@H](Cc1ccccc1)NC(=O)[C@H](Cc1ccc(O)cc1)NC(=O)[C@@H]1CCCN1C(=O)[C@H](CCCN=C(N)N)NC(=O)[C@@H](N)CCCN=C(N)N)C(=O)O
5 = CC(C)C[C@H](NC(=O)C(CC(=O)[C@H](Cc1ccc(O)cc1)NC(=O)[C@@H]1CCCN1C(=O)[C@H](CCCNC(=N)N)NC(=O)[C@@H](N)CCCNC(=N)N)Cc1ccccc1)C(=O)O (single isomer, unassigned)
Ask | // ranking: key=Relative potency, reverse=True Reply: labels, ordered per the request.
Reply | 1, 4, 5, 3, 2
(1: 200, 4: 105, 5: 66.6, 3: 8.3, 2: 0.6)
